Tested on: S. aureus USA300
Format: cell-based, Staphylococcus aureus
Conditions: microbroth dilution per CLSI, MHB, 18 h at 37 °C, visual inspection, three technical replicates
Where a SMILES comes first, the peptide text is derived from it. [ ]: non-standard residue; d: D form. The star is where a group is joined. ξ: configuration not given here. Octanoyl(7-Me) = CC(C)CCCCCC(=O)*; Hexanoyl(4ξ-Me) = CCC(C)CCC(=O)*; dOrn = NCCC[C@@H](N)C(=O)O; Orn = NCCC[C@H](N)C(=O)O
value_kind: Antibacterial activity (MIC) S. aureus USA300

compound	assayed_system	result
CCC(C)CCC(=O)N[C@H](CC(N)=O)C(=O)N[C@H](Cc1ccc(O)cc1)C(=O)N[C@H](Cc1c[nH]c2ccccc12)C(=O)N[C@H](CCCN)C(=O)N[C@@H](CCCN)C(=O)NCC(=O)N[C@H](CCCN)C(=O)N[C@@H](Cc1c[nH]c2ccccc12)C(=O)N[C@H](C(=O)N[C@H](C(N)=O)[C@@H](C)CC)[C@@H](C)O (some centres unmarked) [Δ11–12LB-NH2 (11)] ({Hexanoyl(4ξ-Me)}-[dN][dY][dW][dOrn][Orn]G[dOrn]WTI-NH2)	S. aureus USA300	>32 µg/mL
CC[C@H](C)[C@H](NC(=O)[C@@H](NC(=O)[C@H](Cc1c[nH]c2ccccc12)NC(=O)[C@@H](CCCN)NC(=O)CNC(=O)[C@H](CCCN)NC(=O)[C@@H](CCCN)NC(=O)[C@@H](Cc1c[nH]c2ccccc12)NC(=O)[C@@H](Cc1ccc(O)cc1)NC(=O)[C@@H](CO)NC(=O)CCCCCC(C)C)[C@@H](C)O)C(=O)N[C@@H](CC(N)=O)C(=O)NCC(=O)N[C@@H](C)C(N)=O [LL(Ala13)-NH2 (41)] ({Octanoyl(7-Me)}-[dS][dY][dW][dOrn][Orn]G[dOrn]WTINGA-NH2)	S. aureus USA300	>32 µg/mL
